Target or test system: pooled human IgG
Readout label: Enzyme Activity Endpoint Assay (purified): Fc (ng/µL)
Numbers only, in ng/µL.

Any idea what Enzyme Activity Endpoint Assay (purified): Fc was measured for PRT-266 (protein) MVTSVWTKGVTPPTDFIYGEDVLHAPYKAGQGWYDITKTFNGKDDLLCGAATAGNMLHWWFDQNKEQIENYLKKHPEKQKINFNGEQMFDVKEAIDTKDSQLDSKLFEYFKEKAFPNLSTKHLGVFPDHVIDMFINGYRLSLLNHGPTPVKRGSKDPRGGIFDAVFTRGDQSKLLTNRHDLKNKTLKEISDLIKQELTEGKALGISHTYANVRINHVINLWGADFDAEGNLEAIYVTDSDSNASIGMKKYFVGVNSSGKVAISAKEIEEDNIGAQVLGLFTLSTGQDIWNQTN ?
401

Field: next protein
Any idea what Enzyme Activity Endpoint Assay (purified): Fc was measured for PRT-121 (protein) MRNATEAYNEDTPKQITSVWTKGVTPPTPEQFRKYNEDVLHAPYIANQGWYDITKTFNGKDDLLCGAATAGNMLHWWFDQNKTEIEAYLSKYPEKQKIIFNNQELFDLRAAIDTKDSQTNSALFNYFRDKAFPNLSARQLGVMPDLVLDMFINGYYLNVTKTQSTDVNRPYQTKDKRGGIFDAVFTRGDQTTLLTSRHDLKNKTLNEISDLIKQELTEGKALALSHTYANVSISHVINLWGADFNAEGNLEAIYVTDSDANASIGMKKYFVGVNAAGKVAISAKKIEGENIGAQVLGLFTLSTGKDIWEKLS ?
174
